The reported numbers originate from paper PMC6263113.

study target: AChE (Rattus norvegicus)
Sequence (P37136 32-614): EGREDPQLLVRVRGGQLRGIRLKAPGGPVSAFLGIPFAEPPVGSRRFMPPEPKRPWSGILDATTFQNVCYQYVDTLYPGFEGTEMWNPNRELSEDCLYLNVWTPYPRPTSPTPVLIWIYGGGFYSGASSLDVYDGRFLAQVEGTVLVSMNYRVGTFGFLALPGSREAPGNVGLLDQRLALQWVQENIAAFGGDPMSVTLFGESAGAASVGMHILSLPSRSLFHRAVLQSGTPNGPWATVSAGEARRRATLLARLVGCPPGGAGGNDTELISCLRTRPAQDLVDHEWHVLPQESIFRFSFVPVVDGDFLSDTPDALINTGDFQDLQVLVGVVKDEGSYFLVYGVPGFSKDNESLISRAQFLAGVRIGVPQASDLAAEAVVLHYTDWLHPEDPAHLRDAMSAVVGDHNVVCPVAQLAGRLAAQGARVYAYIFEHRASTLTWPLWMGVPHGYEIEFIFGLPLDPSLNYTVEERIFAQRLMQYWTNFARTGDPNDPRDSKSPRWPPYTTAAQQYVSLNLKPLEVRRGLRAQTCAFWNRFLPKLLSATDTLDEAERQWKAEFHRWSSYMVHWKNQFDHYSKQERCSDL
assay endpoint: IC50 (µM)
Numbers only; they are read as µM.

molecule | study target | assay endpoint | reading
CCCCC1Sc2ccccc2C(=O)N1CCCN1CCCCC1 (stereo not drawn) | AChE (Rattus norvegicus) | IC50 | 73.3
O=C1c2ccccc2SC(c2ccccc2)N1CCCN1CCCCC1 (stereo not drawn) | AChE (Rattus norvegicus) | IC50 | 39.8
O=C1c2ccccc2SC(c2ccc([N+](=O)[O-])cc2)N1CCCN1CCCCC1 (stereo not drawn) | AChE (Rattus norvegicus) | IC50 | 39.8
O=C1c2ccccc2SC(c2ccc([N+](=O)[O-])cc2)N1CCN1CCOCC1 (stereo not drawn) | AChE (Rattus norvegicus) | IC50 | 70.6

May I ask what IC50 has been recorded for O=C1c2ccccc2SC(c2ccc(F)cc2)N1CCCN1CCCCC1 (stereo not drawn) ?
61.7

Same read-out for O=C1c2ccccc2SC(c2ccc([N+](=O)[O-])cc2)N1CCN1CCCCC1 (stereo not drawn) ?
119
